# credit: the supplement of paper PMC9732359

# TEST_NAME: protein stability index of a GFP-peptide fusion (yeast GPS) (PSI 1-4); higher = more stable; sorted into four equal gates, so the index is relative within each strain
# MEASUREMENT_PARAMETERS: ubr1∆

SEQUENCE_INPUT	protein stability index
DSEIEISSEKLLTLTNA [RPP1A]	3.12
EKPQFKDGETTDANGKT [RPO26]	3.28
KPIQNGEIIDISAFTQF [ARP9]	2.98
KERISVAAASKILSNLV [PRE2]	2.71
INKNSKIALREYINNCK [POP4]	1.73
RDVMCTDGVIGSRTTTN [RPO31]	3.16
AVYFADTSGLKISNSEF [SIN4]	3.18
ENLMVQRTCLMTVTFLI [YCS4]	2.04
IFALCIYNSTDSNSEIL [YML103C/NUP188]	1.95
EEYKKSLYAYCHSKLRG [GRR1]	2.44
FNQRDGEHEKSNILLNS [MED1]	3.21
NNLKNSGNSANNMNVNM [GAL11]	3.02
ETELFEPGVLNTGDGSI [ECM29]	3.07
KVPDISSDGQLKKFRES [BRR2]	3.54
LQIKRDVLDDLYRKLQR [CSE2]	3.35
LKLLAKSHVLLATPVQF [BRR2]	1.44
DSAKEWPQSKNCEYEDP [RPB3]	3.27
SIQPIESNIKMTLEDNN [SSN2]	2.97
DLRLIKVPQQAAGKRIS [SMC1]	1.15
DLSYNFNVHEVPRAALE [YMR129W/POM152]	2.92
SYDRTLLIADSRRPEPK [RPS16A]	2.29
AYVVNDTAPKPNIVEID [DLS1]	3.15
FQFKLLQSNSKLASTLE [SMC4]	2.58
SLQSCSVAVHFQYVIDE [SMC4]	1.54
KYRKRQLVTREAQIKDW [FAS2]	3.22
RYVYAHFPINVNIVEKD [RPL9A]	2.19
CCINAAFLALVDAGIAL [RRP46]	2.62
LVSTLTTGISSTGAADG [SMC2]	2.69
VAPVSEIVNMVPSHVPQ [SIR2]	2.87
VMRNTYNTRKNAVTAAA [GAL11]	1.97
NQKIPDNVIVINHKINN [SIR3]	2.14

---

Listing of recorded protein stability index by entry.
# TEST_NAME: protein stability index of a GFP-peptide fusion (yeast GPS) (PSI 1-4); higher = more stable; sorted into four equal gates, so the index is relative within each strain
# MEASUREMENT_PARAMETERS: ubr1∆

SEQUENCE_INPUT	protein stability index
DNDIMNLGSRTKNNTQA [SSN3]	2.98
KTQLGSTMTEPVKQSFI [GAL11]	2.85
PAHTVIIKGTDVYSPEK [BRR2]	2.68
IGDYILKSPVLSKLCVP [QCR7]	1.69
TLFSSIEPQVINYLALN [ECM29]	2.09
FIMASVGKYDKAIELLE [SRP72]	3.1
QTLSEKEYQCSAVIIDE [YIL149C/MLP2]	2.88

---

Listing of recorded protein stability index by entry.
# TEST_NAME: protein stability index of a GFP-peptide fusion (yeast GPS) (PSI 1-4); higher = more stable; sorted into four equal gates, so the index is relative within each strain
# MEASUREMENT_PARAMETERS: ubr1∆

SEQUENCE_INPUT	protein stability index
VDFDGLDIKRVGSENVE [SNF12]	3.35
DTLDSKSNGSSDDDNIG [ISW2]	3.03
PVVQVGIFIKILNDSLI [IRR1]	1.97
QDGGVTPYSNESGLVNA [RPO21]	2.6
RRMGILKKILDQCKKQR [RPO31]	1.9
QLSQDEHSQVEQTCVKL [SRP72]	3.25
PFGVSTIFGGVDKNGAH [PRE10]	2.97
GEDSTKPLGPCDVFWVQ [POP1]	2.8
DIRKFLDGIYVSHKGFI [RPL9A]	3.23
IVDKYIGESARIIREMF [RPT4]	2.44
MSAPEAQQQKRGGFGGR [RPS2]	3.33
FVVPTFGQDVSPMINST [SNM1]	2.84
GGFTAYGGADYGEATSP [RPO21]	2.01
QENKNIDDENITKLNKE [SRB4]	3.46
FPTDLEIFQLFTNPSVD [SWI1]	2.35
SNTDETKGENYQLVKTL [FAS2]	3.25
LVRDSKPSKPFNVDDVL [MED8]	2.5
MEYLKSSKSLDLNTRIS [RPN5]	2.61
QETASPLSQDELISLRK [YIL149C/MLP2]	2.13
VDPLKSLEDKILRMGAF [RRI1]	2.94
LIAEETNNKKLLEKANN [SMC3]	3.32
HPVSLISFAIYSALNST [RRP42]	1.84
AEKYQERSLRQKYNLLH [SNM1]	3.12
LVQKFGGADQVTRTQQW [SWI1]	2.78
FEHGRTPAEMSRPATTT [FAS2]	2.79
HKVQTKLTRELEKKFQD [RPS7A]	2.54
GGGYFSAAGMTAAIDSV [FAS1]	3.07
ELAQYMKTNVHTQANEP [RGR1]	2.75
IPSGNVWNYTFMGTAFN [PRP8]	2.93
LYPSFKPIYKDTRFGGR [SSN2]	3.41
QTKDSVKEIVLPLFYDL [IRR1]	2
